- Test system: MARIMO
- experimentDescription: cell viability relative to vehicle control; higher = less cytotoxic;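 further: after 48 h exposure read by CellTiter-Glo luminescence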
- conditionSet: 10 µM; SRSF2 genotype: SRSF2 P95H/wt
Counter-ions that a name gives are not always drawn.
Assignment: determine reported cell viability for the given compounds.
One number for each entry, in %.

Some compounds with known cell viability results, for comparison:
| compound | unitSpec | cell viability |
| --- | --- | --- |
| Cc1cncc(CN2CCC(=C3c4ccc(Cl)cc4CCc4cccnc43)CC2)c1 [Rupatadine Fumarate] | % | 62.6 |
| Nc1[nH]cnc2ncnc1-2 [Adenine sulfate] | % | 94.7 |
| Cc1cc(Cn2cnc3c2CC(C(=O)O)N(C(=O)C(c2ccccc2)c2ccccc2)C3)ccc1N(C)C (stereo not given) | % | 102 |
| CCOC(=O)OC(C)OC1=C(C(=O)Nc2ccccn2)N(C)S(=O)(=O)c2ccccc21 (stereo not given) | % | 101 |

Now for another entry.
[Q] Provide the reported cell viability (system: MARIMO) for Cc1cc(C)nc(NS(=O)(=O)c2ccc(NC(=S)NC(=O)COc3ccc(Br)cc3Cl)cc2)n1
[A] 82.3

---

Assignment: determine reported cell viability for the given molecules.
- Tested on: OCI-AML2
- experimentDescription: cell viability relative to vehicle control; higher = less cytotoxic
- conditionSet: 10 µM; SRSF2 genotype: wt/wt
Structures can show the parent of a compound that is named as a salt.
Give bare numbers, in %.

Some molecules with known cell viability results, for comparison:
| molecule | cell viability / % |
| --- | --- |
| O=C(O)C1=CO[C@@H](O[C@@H]2O[C@H](CO)[C@@H](O)[C@H](O)[C@H]2O)[C@@H]2C(CO)=CC[C@H]12 | 107 |
| Oc1cc(O)c2c(c1)OC(c1ccc(O)c(O)c1)C(OC1(c3ccc(O)c(O)c3)Oc3cc(O)cc(O)c3C(O)C1O)C2 (stereo unspecified) | 101 |
| C[C@@H](c1ncncc1F)[C@](O)(Cn1cncn1)c1ccc(F)cc1F | 108 |
| O=C(NCC1(c2nc(-c3ccccc3)cs2)CCOCC1)c1cccc(-c2noc(C(F)(F)F)n2)c1 | 79.3 |
| CN[C@H]1C(=O)N[C@@H]2Cc3ccc(cc3)Oc3cc4cc(c3O[C@@H]3O[C@H](C(=O)O)[C@@H](O)[C@H](O)[C@H]3NC(=O)CCCCCCCCC(C)C)Oc3ccc(cc3Cl)[C@@H](O)[C@@H]3NC(=O)[C@H](NC(=O)[C@@H]4NC(=O)[C@@H](NC2=O)c2cc(cc(O)c2Cl)Oc2cc1ccc2O)c1ccc(O)c(c1)-c1c(O[C@H]2O[C@H](CO)[C@@H](O)[C@H](O)[C@@H]2O)cc(O)cc1[C@@H](C(=O)NCCCN(C)C)NC3=O | 106 |
| O=C1CN2Cc3c(ccc(Cl)c3Cl)N=C2N1 [Anagrelide hydrochloride] | 110 |
| CC(CN(C)C)Oc1nc(Nc2cc3cccc(Cl)c3cn2)cnc1C#N (stereo unspecified) | 18.5 |
| CC#CC(=O)N1CCC[C@H]1c1nc(-c2ccc(C(=O)Nc3ccccn3)cc2)c2c(N)nccn12 | 96.9 |
| C/C(=C\C(=O)Nc1ccccc1C(=O)O)c1ccc2ccccc2c1 | 93.6 |
| COc1ccc(-n2nc(C(N)=O)c3c2C(=O)N(c2ccc(N4CCCCC4=O)cc2)CC3)cc1 | 96.7 |

For every record below, what is its cell viability?
1. CCCCc1oc2ccc(NS(C)(=O)=O)cc2c1C(=O)c1ccc(OCCCN(CCCC)CCCC)cc1 [Dronedarone HCl (Multaq)]
2. CNC(=O)c1ccc(N2C(=S)N(c3cnc(C#N)c(C(F)(F)F)c3)C(=O)C23CCC3)cc1F
3. C=C1C[C@@]23CC[C@H]4[C@@](C)(CCC[C@@]4(C)C(=O)O[C@@H]4O[C@H](CO)[C@@H](O)[C@H](O)[C@H]4O)[C@@H]2CC[C@]1(O[C@@H]1O[C@H](CO)[C@@H](O)[C@H](O[C@@H]2O[C@H](CO)[C@@H](O)[C@H](O)[C@H]2O)[C@H]1O[C@@H]1O[C@H](CO)[C@@H](O)[C@H](O)[C@H]1O)C3 [Rebaudioside A]
4. CC(COc1ccccc1Cc1ccccc1)N1CCCCC1 (stereo unspecified) [Benproperine phosphate]

[A]
1. 0.55
2. 88.1
3. 105
4. 84.7

For every record below, what is its cell viability?
1. CC(C)n1nc(-c2cc3cc(O)ccc3[nH]2)c2c(N)ncnc21
2. COc1ccc2[nH]cc(/C=C3\C(=O)Nc4ccc(NC(=O)CCN5CCCCC5)cc43)c2c1
3. C[C@H](NC(=O)/C(C#N)=C/c1cccc(Br)n1)c1ccccc1
4. CC(C)=C1CC[C@@H](C)CC1=O
5. CC[C@H]1OC(=O)[C@H](C)[C@@H](O[C@H]2C[C@@](C)(OC)[C@@H](O)[C@H](C)O2)[C@H](C)[C@@H](O[C@@H]2O[C@H](C)C[C@H](N(C)C)[C@H]2O)[C@](C)(O)C[C@@H](C)CN[C@H](C)[C@@H](O)[C@]1(C)O
6. CCOC(=O)N[C@@H]1CC[C@@H]2[C@@H](C1)C[C@H]1C(=O)O[C@H](C)[C@H]1[C@H]2/C=C/c1ccc(-c2cccc(F)c2)cn1
7. COC(=O)C[C@](O)(CCCC(C)(C)O)C(=O)O[C@@H]1C(OC)=C[C@]23CCCN2CCc2cc4c(cc2[C@H]13)OCO4

[A]
15.1
0.72
7.71
98.7
97.8
64.7
11.4
